Cited source: patent US11566007B2

target: K-Ras G12C (Homo sapiens (Human), UniProt P01116+P62937, G12C); test: Ras-Raf (BRAF RBD) disruption / FRET / MOA assay, KRAS G12C; type: biochemical; details: KRAS G12C; Ras-Raf disruption/FRET/MOA assay; read-out: IC50* KRAS G12C FRET data
Sequence (P01116-2 other isoform, or with tags, fused parts or gaps G12C): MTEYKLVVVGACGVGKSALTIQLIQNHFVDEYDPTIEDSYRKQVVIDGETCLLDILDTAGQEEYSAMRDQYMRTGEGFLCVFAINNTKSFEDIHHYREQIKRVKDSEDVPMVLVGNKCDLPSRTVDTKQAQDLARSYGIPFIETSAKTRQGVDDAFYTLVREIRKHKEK
Sequence (P62937 whole entry): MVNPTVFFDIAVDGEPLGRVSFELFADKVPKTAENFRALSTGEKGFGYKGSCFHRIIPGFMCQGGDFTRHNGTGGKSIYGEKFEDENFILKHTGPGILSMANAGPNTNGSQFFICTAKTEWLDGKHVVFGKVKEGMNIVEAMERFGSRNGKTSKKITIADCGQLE
pIC50: −log10 of the molar value.
parameter.measured: pIC50

Worked cases, answers included:
{"columns": ["compound", "system.under.test", "result"],
 "data": [
  ["CC#CC(=O)N1CC[C@]2(CCN([C@H](C(=O)N[C@H]3Cc4nc(cs4)-c4ccc5c(c4)c(c(-c4cccnc4[C@H](C)OC)n5CC)CC(C)(C)COC(=O)[C@@H]4CCCN(N4)C3=O)C(C)C)C2=O)C1 (atropisomer, axis not shown)", "K-Ras G12C (Homo sapiens (Human), UniProt P01116+P62937, G12C)", "6.00 to 7.00"],
  ["C=CC(=O)N1CC(OCC(C(=O)N[C@H]2Cc3nc(cs3)-c3ccc4c(c3)c(c(-c3cccnc3[C@H](C)OC)n4CC)CC(C)(C)COC(=O)[C@@H]3CCCN(N3)C2=O)C(C)C)C1 (mixture of isomers)", "K-Ras G12C (Homo sapiens (Human), UniProt P01116+P62937, G12C)", "6.00 to 7.00"],
  ["C=CC(=O)N1CC[C@H](C(=O)N(C)[C@H](C(=O)N[C@H]2C[C@H]3CN(CCO3)c3ccc4c(c3)c(c(-c3cccnc3COC)n4CC)CC(C)(C)COC(=O)[C@@H]3CCCN(N3)C2=O)C(C)C)C1", "K-Ras G12C (Homo sapiens (Human), UniProt P01116+P62937, G12C)", "5.00 to 6.00"],
  ["C=CC(=O)N1CC[C@H](C(=O)N(C)[C@H](C(=O)N[C@H]2Cc3cc(O)cc(c3)-c3ccc4c(c3)c(c(-c3cn(C)cn3)n4CC)CC(C)(C)COC(=O)[C@@H]3CCCN(N3)C2=O)C(C)C)C1", "K-Ras G12C (Homo sapiens (Human), UniProt P01116+P62937, G12C)", "6.00 to 7.00"],
  ["CCn1c(-c2cccnc2[C@H](C)OC)c2c3cc(ccc31)-c1cccc(c1)C[C@H](NC(=O)[C@@H](CO[C@H]1CCN(C(=O)C#CC(C)(C)N(C)C)C1)C(C)C)C(=O)N1CCC[C@H](N1)C(=O)OCC(C)(C)C2 (atropisomer, axis not shown)", "K-Ras G12C (Homo sapiens (Human), UniProt P01116+P62937, G12C)", "7.00 to 8.00"],
  ["CCn1c(-c2cccnc2[C@H](C)OC)c2c3cc(ccc31)-c1csc(n1)C[C@H](NC(=O)[C@H](C(C)C)N(C)C(=O)N1CCC13CN(C(=O)C#CC(C)(C)N(C)C)C3)C(=O)N1CCC[C@H](N1)C(=O)OCC(C)(C)C2 (atropisomer, axis not shown)", "K-Ras G12C (Homo sapiens (Human), UniProt P01116+P62937, G12C)", "6.00 to 7.00"],
  ["C=CC(=O)N1CC[C@@](C#N)(C(=O)N(C)[C@H](C(=O)N[C@H]2Cc3cccc(c3)-c3ccc4c(c3)c(c(-c3cccnc3[C@H](C)OC)n4CC)CC(C)(C)COC(=O)[C@@H]3CCCN(N3)C2=O)C(C)C)C1 (atropisomer, axis not shown)", "K-Ras G12C (Homo sapiens (Human), UniProt P01116+P62937, G12C)", "7.00 to 8.00"]
]}

Okay, next one:
Exercise: Request the reported pIC50 associated with CCn1c(-c2cccnc2[C@H](C)OC)c2c3cc(ccc31)-c1csc(n1)C[C@H](NC(=O)[C@H](C(C)C)N(C)C(=O)N1CCN(C(=O)/C=C/CN(C)C)C[C@@H]1C)C(=O)N1CCC[C@H](N1)C(=O)OCC(C)(C)C2 (atropisomer, axis not shown)
Solution: 7.00 to 8.00
